# conditions.used: [M+Na]+; instrument: TW; calibrated with phosphatidylcholines (ESI+) and phosphatidylethanolamines (ESI-)
Response field label takes TRUE when collision cross section (N2) is strictly below 300 Å² and FALSE in all other cases.

Recorded results for 2 compounds are shown here.
CCCCCCCCCCCCCCCCC(=O)OC[C@H](CO[C@@H]1O[C@H](CO[C@H]2O[C@H](CO)[C@H](O)C(O)C2O)[C@H](O)C(O)C1O)OC(=O)CCCCCCCCCCCCCCCC (stereo not given in full) [DGDG(34:0)]; FALSE
CC/C=C\C/C=C\C/C=C\CCCCCCCC(=O)OC[C@H](CO[C@@H]1O[C@H](CO)[C@H](O)C(O)C1O)OC(=O)CCCCC/C=C\C/C=C\C/C=C\CC (stereo not given in full) [MGDG(16:3/18:3)]; TRUE

In the following, a different compound is considered.
Query :: Is 300 Å² strictly greater than the compound's reported collision cross section (N2)? compound: CCCCCCCCCCCCCCC=CCC(=O)OC[C@H](CO[C@@H]1O[C@H](CO[C@H]2O[C@H](CO)[C@H](O)C(O)C2O)[C@H](O)C(O)C1O)OC(=O)CC=CCCCCCCCCCCCCCC (stereo not given in full) [DGDG(36:2)]
Result :: FALSE

* * *

# conditions.used: [M+H]+; instrument: DT; single field, calibrated with ESI Low Concentration Tuning Mix (Agilent)
measured.property: collision cross section (N2)
Give the value; after it, write the unit.

Below are worked cases with known answers.
N[C@@H](Cc1cc(I)c(O)c(I)c1)C(=O)O [3,5-DIIODO-L-TYROSINE]; 171.1 Å²
Cc1ncc(COP(=O)(O)O)c(C=O)c1O [PYRIDOXAL-PHOSPHATE]; 151.3 Å²
O=C(O)C(O)COP(=O)(O)O (centres undefined) [3-PHOSPHOGLYCERATE]; 136.1 Å²

Query :: Look at this molecule and give its reported collision cross section (N2). Nc1ccn([C@@H]2O[C@H](COP(=O)(O)OP(=O)(O)OP(=O)(O)O)[C@@H](O)[C@H]2O)c(=O)n1 [CYTIDINE TRIPHOSPHATE]
Result :: 188.4 Å²

Query :: NCCc1cc(O)c(O)cc1O [6-HYDROXYDOPAMINE] , same question.
Result :: 143 Å²

Query :: Cn1c(=O)[nH]c2ncn(C)c2c1=O [PARAXANTHINE] , same question.
Result :: 138.7 Å²

Query :: Nc1ncnc2nc[nH]c12 [ADENINE] , same question.
Result :: 124.9 Å²

Query :: N[C@@H](CSSC[C@H](N)C(=O)O)C(=O)O [CYSTINE] , same question.
Result :: 149.4 Å²

Query :: NC(N)=NCC(=O)O [GUANIDINOACETATE] , same question.
Result :: 124.9 Å²

* * *

# conditions.used: [M+Na-2H]-; instrument: DT; single field, calibrated with ESI Low Concentration Tuning Mix (Agilent)
Entries and their collision cross section (N2) values follow.
Field: numeric (Å²). Do not append units.

Nc1nc(=O)c2ncn([C@@H]3O[C@H](COP(=O)(O)OP(=O)(O)OP(=O)(O)O)[C@@H](O)[C@H]3O)c2[nH]1 [GUANOSINE TRIPHOSPHATE]; 184.2
CC(C)(COP(=O)(O)OP(=O)(O)OC[C@H]1O[C@@H](n2cnc3c(N)ncnc32)[C@H](O)[C@@H]1OP(=O)(O)O)[C@@H](O)C(=O)NCCC(=O)NCCSC(=O)C[C@@](C)(O)CC(=O)O [3-HYDROXY-3-METHYLGLUTARYL-COA]; 267.3
Cc1ncc(COP(=O)(O)O)c(C=O)c1O [PYRIDOXAL-PHOSPHATE]; 153.2

Query :: Look at this molecule and give its reported collision cross section (N2). N[C@@H](CCC(=O)O)C(=O)O [GLUTAMATE]
Result :: 131.8

Query :: O=C(O)[C@@H](O)[C@H](O)[C@H](O)[C@@H](O)C(=O)O [GALACTARATE] , same question.
Result :: 137.2

Query :: CN[C@@H](CCC(=O)O)C(=O)O [N-METHYLGLUTAMATE] , same question.
Result :: 137.2

Query :: `N[C@@H](CCS)C(=O)O` , same question.
Result :: 127.6

Query :: CC(=O)N[C@H]1[C@H]([C@H](O)[C@H](O)CO)OC(O)(C(=O)O)C[C@@H]1O (stereo partly drawn) [N-ACETYLNEURAMINATE] , same question.
Result :: 171.4

* * *

# conditions.used: [M-H]-; instrument: DT; single field, calibrated with Agilent tune mix (Agilent)
measured.property: collision cross section (N2)
Give the value; after it, write the unit.

CC(=O)NCCCC[C@H](N)C(=O)O; 139.75 Å²
CC(=O)CC(=O)SCCNC(=O)CCNC(=O)[C@H](O)C(C)(C)COP(=O)(O)OP(=O)(O)OC[C@H]1O[C@@H](n2cnc3c(N)ncnc32)[C@H](O)[C@@H]1OP(=O)(O)O; 252.94 Å²
CCCCC/C=C/C(=O)O [trans-2-Octenoic acid]; 141.13 Å²

Query :: Look at this compound and give its reported collision cross section (N2). C[C@]12CC[C@H]3[C@@H](CC=C4C[C@@H](O)CC[C@@]43C)[C@@H]1CC[C@@H]2C(=O)CO [21-Hydroxypregnenolone]
Result :: 185.89 Å²

Query :: `O=C(O)CCC1=C(CC(=O)O)c2cc3nc(cc4[nH]c(cc5[nH]c(cc1n2)c(CC(=O)O)c5CCC(=O)O)c(CC(=O)O)c4CCC(=O)O)C(CC(=O)O)=C3CCC(=O)O` , same question.
Result :: 267.79 Å²

Query :: C[C@]12CC[C@@H](O)C[C@H]1CC[C@@H]1[C@@H]2[C@@H](O)C[C@]2(C)[C@@H](C(=O)CO)CC[C@@H]12 [3alpha,11beta,21-Trihydroxy-5beta-pregnan-20-one] , same question.
Result :: 187.18 Å²

* * *

Entries and their collision cross section (N2) values follow.
# conditions.used: [M-H]-; instrument: TW; calibrated with phosphatidylcholines (ESI+) and phosphatidylethanolamines (ESI-), doubly charged cardiolipins calibrated with poly-DL-…
Field: numeric (Å²). Do not append units.

Query :: Look at this compound and give its reported collision cross section (N2). CCCCCCCCC1CC1CCCCCCCC(=O)OC[C@@H](O)COP(=O)([O-])OCC[NH3+] (some centres not stated)
Result :: 214.97

Query :: CCCCCC/C=C/CCCCCCCC(=O)O[C@H](CO)COP(=O)(O)OCC(O)CO (some centres not stated) , same question.
Result :: 209.98

Query :: CCCCCC/C=C\CCCCCCCC(=O)OCC(COP(=O)(O)O)OC(=O)CCCCCCC/C=C\CCCCCC (configuration not stated) , same question.
Result :: 247.47

Query :: CCCCCC/C=C\CCCCCCCC(=O)OCC(COP(=O)(O)OCCN)OC(=O)CCCCCCCC1CC1CCCCCC (configuration not stated) , same question.
Result :: 257.69

* * *

Entries and their collision cross section (N2) values follow.
# conditions.used: [M+H]+; instrument: DT; stepped-field
Field: numeric (Å²). Do not append units.

COc1cc(-c2oc3cc(O)cc(O)c3c(=O)c2O)ccc1O; 172.96
C[N+](C)(C)CCOP(=O)([O-])OC[C@H](O)CO; 157.17
Nc1ccnc(=O)[nH]1; 121.58
Nc1ncnc2c1ncn2[C@@H]1O[C@H](CO)[C@@H](O)[C@H]1O; 156.97
O=C(O)CCCC[C@@H]1SC[C@@H]2NC(=O)N[C@@H]21; 154.16

Query :: Look at this compound and give its reported collision cross section (N2). `NCCCCN=C(N)N`
Result :: 129.96

Query :: `O=C(O)/C=C/c1ccccc1` , same question.
Result :: 145.31

Query :: `C[N+](C)(C)CC(=O)[O-]` , same question.
Result :: 121.6

Query :: `CN(CC(=O)O)/C(N)=N/P(=O)(O)O` , same question.
Result :: 153.77

Query :: `c1cn[nH]c1` , same question.
Result :: 125.47

Query :: `O=C1C[C@@H](c2ccc(O)c(O)c2)Oc2cc(O)cc(O)c21` , same question.
Result :: 170.48

Query :: `CCNc1nc(NC(C)(C)C)nc(SC)n1` , same question.
Result :: 161.23

Query :: `CCCCC/C=C\C\C=C/C=C/C=C/[C@@H](SC[C@H](N)C(=O)NCC(=O)O)[C@@H](O)CCCC(=O)O` , same question.
Result :: 234.1

Query :: `O=C(O)[C@H](O)[C@@H](O)[C@H](O)[C@H](O)CO` , same question.
Result :: 141.89

Query :: `CC(=O)Nc1ccc(S(=O)(=O)Nc2cc(C)on2)cc1` , same question.
Result :: 171.45

Query :: CS(=N)(=O)CC[C@H](N)C(=O)O (stereo partly drawn) , same question.
Result :: 139.3

Query :: CCCCCC1OC1C/C=C\C/C=C\C/C=C\CCCC(=O)O (stereo not drawn) , same question.
Result :: 182.43

Query :: `CCCCCCCCCCCCC=CC[C@@H](O)[C@H](COP(=O)([O-])OCC[N+](C)(C)C)NC(=O)CCCCCCCCCCCCCCCC` , same question.
Result :: 290.12
